pIC50: −log10 of the molar value.
The entries that follow carry pIC50 values tested on ROCK2 (Homo sapiens, UniProt O75116), drawn from several published reports.

See these solved cases before continuing.
compound: Cn1c(C(=O)Nc2ccnnc2)cc2c1CN(c1nccc(Nc3ccc(-c4cn[nH]c4)cc3)n1)CC2
measurement.kind: pIC50
result: 6.30 to 7.30

compound: COc1cc2nc(-c3cccc(NC(=O)CN4CCOCC4)c3)nc(Nc3ccc4[nH]ncc4c3)c2cc1OCCN1CCCC1
measurement.kind: pIC50
result: 7.22

compound: Cn1ncc2cc(C(N)=O)c(O[C@H]3C[C@@]4(C[C@H](NC(=O)c5nnc(-c6ccc(C(F)(F)F)cc6)s5)C4)C3)nc21 (stereo partly drawn)
measurement.kind: pIC50
result: 7.84

Enquiry: Give its pIC50 value. Item: `Cn1cc(C(=O)Nc2cccc(-n3nc(Nc4ccc5[nH]ncc5c4Cl)c4ccncc43)c2)cn1`
Return: > 6.52

Enquiry: Give its pIC50 value. Item: `CCc1nc(N2CCN(Cc3ccc(F)c(OC)c3)C2=O)ccc1-c1cn[nH]c1`
Return: 7.70 to 8.68

Enquiry: Give its pIC50 value. Item: `COc1nc(N2CC3(CCN(C(=O)OC(C)(C)C)CC3)N(Cc3cccc(F)c3C)C2=O)ccc1-c1cn[nH]c1`
Return: 7.52 to 8.52

Enquiry: Give its pIC50 value. Item: `CC(C)(O)COc1ccc2c(c1)CCc1sc(NC(=O)Cc3ccc(Oc4ncccc4C(N)=O)cc3)nc1-2`
Return: 7.40

Enquiry: Give its pIC50 value. Item: `COc1cccc(Cn2c(C)nn(-c3ccc(-c4ncnc5[nH]ccc45)cc3)c2=O)c1`
Return: 5.70 to 6.60

Enquiry: Give its pIC50 value. Item: `COc1cc(F)cc(CN2C(=O)N(c3ccc(-c4cn[nH]c4)cc3)C[C@H]2CO)c1`
Return: > 8.70

Enquiry: Give its pIC50 value. Item: CCn1nccc1C(=O)NC1CC2(C1)CC(c1n[nH]c(=O)c3ccccc13)C2 (stereo not drawn)
Return: 7.00 to 7.82

Enquiry: Give its pIC50 value. Item: `O=C1N(c2ccc(-c3cn[nH]c3)cc2)CC2(CCOCC2)N1CC1CCCCC1`
Return: 6.60 to 7.52

Enquiry: Give its pIC50 value. Item: O=C1N(c2ccc(-c3cn[nH]c3)cc2)CCC12Cc1cc(F)ccc1N2 (single isomer, unassigned)
Return: 6.52 to 7.52

Enquiry: Give its pIC50 value. Item: O=C(NC1CC2(C1)CC(c1n[nH]c(=O)c3ccccc13)C2)c1cnn2cc(-c3cnn(C4CCOCC4)c3)ccc12 (stereo not drawn)
Return: 8.70 to 9.70

Enquiry: Give its pIC50 value. Item: COc1ccc2c(c1)CC1(CCN(c3ccc(-c4cn[nH]c4)cc3)C1=O)O2 (single isomer, unassigned)
Return: 6.52 to 7.52

Enquiry: Give its pIC50 value. Item: `COc1cc(-n2ncn(Cc3cccc(F)c3)c2=O)ccc1-c1cn[nH]c1`
Return: > 8.30

* * *

pIC50: −log10 of the molar value.
The entries that follow carry pIC50 values tested on ROCK2 (Homo sapiens), drawn from several published reports.
Give label 1 when the value for pIC50 is at least 8. Give label 0 when it is less.

Worked examples, 8 compounds total:
compound: COc1ccc2sc(NC(=O)Cc3ccc(Oc4ncccc4C(N)=O)cc3)nc2c1
assigned.label: label 0
--
compound: O=C(Cc1ccc(-c2n[nH]c(=O)c3ccccc23)cc1)N1CCCc2ccccc21
assigned.label: label 0
--
compound: NC(=O)c1cccnc1O[C@H]1C[C@]2(C1)C[C@H](N1C(=O)CN(c3cccc(C(F)(F)F)c3)C1=O)C2 (stereo partly drawn)
assigned.label: label 1
--
compound: COc1cc(N2CCC3(CCN(C(=O)c4cc5cnccc5nc4C)CC3)C2=O)ccc1-c1cn[nH]c1
assigned.label: label 0
--
compound: NC(=O)c1cccnc1O[C@H]1C[C@]2(C1)C[C@H](N1C(=O)NC(Cc3c[nH]cn3)C1=O)C2 (stereo partly drawn)
assigned.label: label 0
--
compound: COc1cc(C(=O)NCc2cc(F)ccc2Cl)ccc1-c1cn[nH]c1
assigned.label: label 1
--
compound: Cc1nn(C)c2nc(OC3CC4(CC(NC(=O)c5cnn6cc(OCC(C)(C)O)ccc56)C4)C3)c(C(N)=O)cc12 (stereo not drawn)
assigned.label: label 0
--
compound: NCC(C(=O)Nc1ccc2cnccc2c1)c1ccc(CO[N+](=O)[O-])cc1 (stereo not drawn)
assigned.label: label 1

Enquiry: Would you say CC(C[C@H]1NC(=O)N([C@H]2C[C@@]3(C[C@H](Oc4ncccc4C(N)=O)C3)C2)C1=O)c1ccccc1 (stereo partly drawn) shows pIC50 at minimum 8?
Return: label 0

Enquiry: Would you say `COc1cc(-c2cn[nH]c2)ccc1C(=O)NCc1ccc(F)cc1Cl` shows pIC50 at minimum 8?
Return: label 1

Enquiry: Would you say `COc1ccc2c(c1)CN(c1nc3c(c(Nc4ccc5[nH]ncc5c4)n1)COCC3)C2` shows pIC50 at minimum 8?
Return: label 0

Enquiry: Would you say `O=C(c1cc2ccc(-c3nccc(Nc4ccc(-c5cn[nH]c5)cc4)n3)cc2[nH]1)N1CC(C(F)F)C1` shows pIC50 at minimum 8?
Return: label 0

Enquiry: Would you say `COc1cccc(CN2C(=O)N(c3ccc(-c4cn[nH]c4)cc3)CC23CCN(C2COC2)CC3)c1` shows pIC50 at minimum 8?
Return: label 1

Enquiry: Would you say `COc1nc(N2CC3(CCN(C(=O)CCN4CCCC4=O)CC3)N(Cc3cccc(F)c3C)C2=O)ccc1-c1cn[nH]c1` shows pIC50 at minimum 8?
Return: label 1
